- Target Of Assay: HDAC6 enzyme (Homo sapiens, UniProt Q9UBN7)
- Construct: transducing full length HDAC1 and HDAC6 genes into Sf-9 insect cells; GST; purchased SignalChem; host or cells: Sf-9 insect cells
- Sequence (Q9UBN7 whole entry): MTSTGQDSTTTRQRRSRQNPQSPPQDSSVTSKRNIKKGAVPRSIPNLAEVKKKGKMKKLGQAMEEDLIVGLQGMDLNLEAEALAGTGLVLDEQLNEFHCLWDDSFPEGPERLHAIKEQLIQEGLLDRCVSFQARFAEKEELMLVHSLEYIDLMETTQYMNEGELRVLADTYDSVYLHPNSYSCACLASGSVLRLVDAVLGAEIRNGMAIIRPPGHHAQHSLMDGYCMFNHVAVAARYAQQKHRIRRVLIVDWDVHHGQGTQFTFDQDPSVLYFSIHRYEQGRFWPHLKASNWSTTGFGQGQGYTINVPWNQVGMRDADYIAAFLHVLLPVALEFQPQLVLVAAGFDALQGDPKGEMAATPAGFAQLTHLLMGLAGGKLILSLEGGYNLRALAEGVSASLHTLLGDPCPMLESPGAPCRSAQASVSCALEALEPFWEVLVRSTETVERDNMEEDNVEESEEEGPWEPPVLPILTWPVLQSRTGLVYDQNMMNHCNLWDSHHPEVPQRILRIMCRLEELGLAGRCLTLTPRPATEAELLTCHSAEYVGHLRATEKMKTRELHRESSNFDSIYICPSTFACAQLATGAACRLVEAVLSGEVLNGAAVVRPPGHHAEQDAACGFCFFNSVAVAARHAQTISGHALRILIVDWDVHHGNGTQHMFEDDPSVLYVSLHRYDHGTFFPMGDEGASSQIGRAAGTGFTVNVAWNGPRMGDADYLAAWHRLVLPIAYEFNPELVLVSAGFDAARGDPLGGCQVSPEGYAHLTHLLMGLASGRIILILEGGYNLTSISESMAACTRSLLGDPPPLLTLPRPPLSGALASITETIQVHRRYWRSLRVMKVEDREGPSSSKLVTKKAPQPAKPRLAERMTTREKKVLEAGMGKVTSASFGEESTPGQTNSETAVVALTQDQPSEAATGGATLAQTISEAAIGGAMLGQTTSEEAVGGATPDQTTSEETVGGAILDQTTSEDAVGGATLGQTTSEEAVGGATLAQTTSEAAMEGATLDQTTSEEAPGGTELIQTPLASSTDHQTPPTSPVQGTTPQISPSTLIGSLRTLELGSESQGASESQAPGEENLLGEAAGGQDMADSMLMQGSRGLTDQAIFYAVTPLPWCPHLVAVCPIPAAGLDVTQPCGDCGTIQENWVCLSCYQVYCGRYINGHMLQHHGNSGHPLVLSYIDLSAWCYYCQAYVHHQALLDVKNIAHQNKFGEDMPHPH
- Assay Info: HDAC1/6 Enzyme Inhibitory Assay (HDAC-Glo I/II Assay kit), HDAC6
- Assay type: biochemical
- Test Conditions: 1 μM test compound; wells without enzyme = 100% inhibition; 1 µM
Property Name: HDAC6 inhibitory rate (%) (1 μM)
Output spec: scalar in %, unitless text.

Some compounds with known HDAC6 inhibitory rate (%) (1 μM) results, for comparison:
(Q) So what's the measured HDAC6 inhibitory rate (%) (1 μM) for this one? O=C1CCCN1[C@@H]1CCOC[C@H]1N1Cc2ccc(-c3noc(C(F)(F)F)n3)cc2C1=O [Example 182]
(A) 98

(Q) Record: CC(CO)(CCl)C(=O)N[C@@H]1CCCC[C@H]1N1Cc2ccc(-c3noc(C(F)(F)F)n3)cc2C1=O (relative stereo)
(A) 99

(Q) Record: `O=C1CCCN1[C@@H]1COCC[C@H]1N1Cc2ccc(-c3noc(C(F)(F)F)n3)cc2C1=O`
(A) 99

Here's the next entry for you.
(Q) So what's the measured HDAC6 inhibitory rate (%) (1 μM) for this one? O=C(N[C@H]1CCOC[C@H]1N1Cc2ccc(-c3noc(C(F)(F)F)n3)cc2C1=O)C1CC1(F)F (single isomer, unassigned)
(A) 98

----------
- Target Of Assay: HDAC9 enzyme (Homo sapiens, UniProt Q9UKV0)
- Construct: transducing full length HDAC9 gene into Sf-9 insect cells; made in house; host or cells: Sf-9 insect cells
- Sequence (Q9UKV0 whole entry, species assumed): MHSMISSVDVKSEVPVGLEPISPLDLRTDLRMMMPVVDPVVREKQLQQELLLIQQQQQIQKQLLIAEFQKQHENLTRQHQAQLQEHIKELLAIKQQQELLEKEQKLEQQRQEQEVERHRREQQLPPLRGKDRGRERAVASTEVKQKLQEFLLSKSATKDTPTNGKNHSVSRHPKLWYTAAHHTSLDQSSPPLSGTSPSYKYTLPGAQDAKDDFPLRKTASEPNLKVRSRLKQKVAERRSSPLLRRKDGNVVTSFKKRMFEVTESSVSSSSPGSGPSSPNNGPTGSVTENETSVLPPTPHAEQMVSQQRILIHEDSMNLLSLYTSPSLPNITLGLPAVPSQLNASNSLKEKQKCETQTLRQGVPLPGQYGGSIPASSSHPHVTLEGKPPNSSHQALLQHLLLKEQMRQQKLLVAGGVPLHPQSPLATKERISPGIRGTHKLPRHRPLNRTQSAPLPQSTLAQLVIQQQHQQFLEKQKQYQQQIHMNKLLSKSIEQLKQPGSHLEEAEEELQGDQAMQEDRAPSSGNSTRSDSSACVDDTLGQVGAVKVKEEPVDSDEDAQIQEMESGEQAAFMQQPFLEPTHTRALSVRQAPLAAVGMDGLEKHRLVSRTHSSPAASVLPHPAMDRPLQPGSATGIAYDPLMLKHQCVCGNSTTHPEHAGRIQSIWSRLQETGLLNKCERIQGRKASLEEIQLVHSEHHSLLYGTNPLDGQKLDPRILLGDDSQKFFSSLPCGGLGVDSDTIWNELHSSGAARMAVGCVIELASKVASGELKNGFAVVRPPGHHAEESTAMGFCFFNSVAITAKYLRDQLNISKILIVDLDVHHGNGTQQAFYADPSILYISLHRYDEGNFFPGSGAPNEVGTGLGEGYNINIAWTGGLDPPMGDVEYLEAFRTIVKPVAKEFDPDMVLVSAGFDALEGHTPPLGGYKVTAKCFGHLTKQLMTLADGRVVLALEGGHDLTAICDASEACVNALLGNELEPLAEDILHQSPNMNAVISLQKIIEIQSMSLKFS
- Assay Info: HDAC9 Enzyme Inhibitory Assay (HDAC-Glo class IIa)
- Assay type: biochemical
- Test Conditions: 1 μM test compound; wells without enzyme = 100% inhibition; read-out: HDAC9 inhibitory rate (%) (1 μM)
- Description: HDAC9 Enzyme Inhibitory Assay Enzyme was prepared by transducing full length HDAC9 gene into Sf-9 insect cells and purifying by Ni-NTA affinity column, and HDAC9 enzyme inhibitory activity was evaluated. Enzymes were used after preserved at −70° C. HDAC9 enzyme inhibitory activity of the test compound was measured using HDAC-Glo class IIa (Promega) according to the following experimental method. […]
Category | rule: reported inhibition at 1 µM within range, see I (below 50%), II (50% to below 80%), III (80% or more)

Recorded results for 3 compounds are shown here.
(Q) Lab log: O=C1CCCN1[C@@H]1CCCC[C@H]1N1Cc2ncc(-c3noc(C(F)(F)F)n3)cc2C1=O [Example 186] — assign inhibition at 1 µM category
(A) III

(Q) Record: CC(=O)N1CCCC(N2Cc3ncc(-c4noc(C(F)(F)F)n4)cc3C2=O)C1 (stereo not drawn) [Example 39]
(A) III

(Q) Record: CC(C)(C#N)C(=O)N[C@@H]1CCCC[C@H]1N1Cc2ccc(-c3noc(C(F)(F)F)n3)cc2C1=O [Example 100]
(A) II

Field: next compound
(Q) Lab log: O=C(N[C@H]1CCCC[C@@H]1N1Cc2ccc(-c3noc(C(F)(F)F)n3)cc2C1=O)[C@@H]1CCCO1 [Example 217] — assign inhibition at 1 µM category
(A) II

----------
- Target Of Assay: HDAC1 enzyme (Homo sapiens, UniProt Q13547)
- Construct: transducing full length HDAC1 and HDAC6 genes into Sf-9 insect cells; GST; purchased SignalChem; host or cells: Sf-9 insect cells
- Sequence (Q13547 whole entry): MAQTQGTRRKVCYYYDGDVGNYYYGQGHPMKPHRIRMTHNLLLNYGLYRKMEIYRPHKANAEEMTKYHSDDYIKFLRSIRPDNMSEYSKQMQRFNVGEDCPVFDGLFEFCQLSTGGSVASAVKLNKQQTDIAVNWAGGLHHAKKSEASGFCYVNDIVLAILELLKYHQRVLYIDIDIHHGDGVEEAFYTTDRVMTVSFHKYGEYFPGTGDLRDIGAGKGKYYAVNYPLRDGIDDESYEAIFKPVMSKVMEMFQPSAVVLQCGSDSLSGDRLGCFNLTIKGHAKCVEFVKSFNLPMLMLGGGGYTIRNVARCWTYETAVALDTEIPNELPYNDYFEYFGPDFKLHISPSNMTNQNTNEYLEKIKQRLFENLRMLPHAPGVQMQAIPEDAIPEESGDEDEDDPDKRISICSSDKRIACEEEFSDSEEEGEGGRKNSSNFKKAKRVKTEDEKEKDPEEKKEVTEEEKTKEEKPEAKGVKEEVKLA
- Assay Info: HDAC1/6 Enzyme Inhibitory Assay (HDAC-Glo I/II Assay kit), HDAC1
- Assay type: biochemical
- Test Conditions: 1 μM test compound; wells without enzyme = 100% inhibition; read-out: HDAC1 inhibitory rate (%) (1 μM)
Outcome label depends on inhibition at 1 µM relative to 20%: at/above gives 1, below gives 0.

(Q) Determine whether measured inhibition at 1 µM meets or exceeds 20% for `O=C(N[C@H]1CCOC[C@@H]1N1Cc2ccc(-c3noc(C(F)(F)F)n3)cc2C1=O)[C@@H]1CCOC1`
(A) 0

(Q) Record: O=C1c2cc(-c3noc(C(F)(F)F)n3)ccc2CN1[C@H]1CCCC[C@@H]1N1CCOCC1 (relative stereo)
(A) 1

(Q) Record: `O=C(N[C@@H]1COCC[C@H]1N1Cc2ccc(-c3noc(C(F)(F)F)n3)cc2C1=O)[C@@H]1CC1(F)F`
(A) 0

(Q) Record: `CC(C)(C)OC(=O)N[C@@H]1COCC[C@H]1N1Cc2ccc(-c3noc(C(F)(F)F)n3)cc2C1=O`
(A) 0

(Q) Record: `O=C(N[C@@H]1CCOC[C@H]1N1Cc2ccc(-c3noc(C(F)(F)F)n3)cc2C1=O)[C@@H]1CC1(F)F`
(A) 0

Next:
(Q) Determine whether measured inhibition at 1 µM meets or exceeds 20% for O=C1c2cc(-c3noc(C(F)(F)F)n3)ccc2CN1C1CCNC[C@@H]1c1ccc(Cl)cc1 (stereo in doubt)
(A) 1

(Q) Record: `CC(=O)N1CC(C)(C(=O)N[C@@H]2CCCC[C@H]2N2Cc3ccc(-c4noc(C(F)(F)F)n4)cc3C2=O)C1`
(A) 0

(Q) Record: `O=C(N[C@@H]1CCCC[C@H]1N1Cc2ccc(-c3noc(C(F)(F)F)n3)cc2C1=O)N1C2COCC1C2`
(A) 0

(Q) Record: O=C(c1ccccc1)N1CCC(N2Cc3ncc(-c4noc(C(F)(F)F)n4)cc3C2=O)C1 (stereo not shown)
(A) 1

(Q) Record: `O=C(CN1CCCC1=O)N[C@@H]1CCCC[C@H]1N1Cc2ccc(-c3noc(C(F)(F)F)n3)cc2C1=O`
(A) 0

(Q) Record: `O=C(N[C@H]1CCOC[C@@H]1N1Cc2ccc(-c3noc(C(F)(F)F)n3)cc2C1=O)[C@H]1CC1(F)F`
(A) 0

(Q) Record: `O=C(N[C@@H]1CCCC[C@H]1N1Cc2ccc(-c3noc(C(F)(F)F)n3)cc2C1=O)N1CCC1`
(A) 0

(Q) Record: `O=C1CCCN1c1ccccc1N1Cc2ccc(-c3noc(C(F)(F)F)n3)cc2C1=O`
(A) 0

(Q) Record: `O=C1c2cc(-c3noc(C(F)(F)F)n3)ccc2CN1[C@@H]1CCCC[C@H]1NC(=O)C1(CO)CCOCC1`
(A) 0

(Q) Record: CC1(C(=O)N[C@@H]2CCCC[C@@H]2N2Cc3ccc(-c4noc(C(F)(F)F)n4)cc3C2=O)COC1 (relative stereo)
(A) 1

(Q) Record: `O=C(N[C@@H]1CCCC[C@H]1N1Cc2ccc(-c3noc(C(F)(F)F)n3)cc2C1=O)N1C2CCCC1COC2`
(A) 0

(Q) Record: O=C1c2ccc(-c3noc(C(F)(F)F)n3)cc2CN1[C@H]1CCNC[C@H]1c1ccccc1 (relative stereo)
(A) 0

(Q) Record: `Cn1cc(C(=O)N[C@@H]2CCCC[C@H]2N2Cc3ccc(-c4noc(C(F)(F)F)n4)cc3C2=O)cn1`
(A) 0

(Q) Record: O=C(Cc1ccc(F)cc1)N1CCC(N2Cc3ncc(-c4noc(C(F)(F)F)n4)cc3C2=O)C1 (stereo not shown)
(A) 1

(Q) Record: `CC(C)(C)OC(=O)N1CC[C@@H](N2Cc3ccc(-c4noc(C(F)(F)F)n4)cc3C2=O)[C@H](c2ccccc2)C1`
(A) 1

(Q) Record: CC(=O)N1CC[C@H](N2Cc3cc(-c4noc(C(F)(F)F)n4)ccc3C2=O)[C@H](c2ccccc2)C1 (relative stereo)
(A) 0

(Q) Record: `O=C(N[C@H]1COCC[C@@H]1N1Cc2ccc(-c3noc(C(F)(F)F)n3)cc2C1=O)[C@@H]1CC1(F)F`
(A) 1

(Q) Record: CC1(C)CC1C(=O)N[C@@H]1CCCC[C@H]1N1Cc2ccc(-c3noc(C(F)(F)F)n3)cc2C1=O (stereo partly shown)
(A) 0

(Q) Record: `O=C1c2cc(-c3noc(C(F)(F)F)n3)ccc2CN1[C@@H]1CCc2ccccc21`
(A) 0

(Q) Record: `O=C(N[C@@H]1CCCC[C@H]1N1Cc2ccc(-c3noc(C(F)(F)F)n3)cc2C1=O)N1CC(F)(F)C1`
(A) 0

(Q) Record: O=C1c2ccc(-c3noc(C(F)(F)F)n3)cc2CN1[C@@H]1CCNC[C@H]1c1ccccc1 (relative stereo)
(A) 1

(Q) Record: O=C1c2cc(-c3noc(C(F)(F)F)n3)ccc2CN1[C@@H]1CCNC[C@H]1c1ccc(Cl)c(F)c1 (relative stereo)
(A) 1

(Q) Record: N[C@H]1CCCC[C@H]1N1Cc2ccc(-c3noc(C(F)(F)F)n3)cc2C1=O (relative stereo)
(A) 0
